These data points were gathered from paper PMC7766159.

Below: a set of entries, each annotated with reported Relative Population Doubling (RPD).
Test system: TK6 cells
assay protocol: Cytostasis analysis (Relative Population Doubling, Guava ViaCount)
Format: cell-based, human
setup conditions: 6.25 µM, 26 h treatment, vs untreated control C (-) = 100%, mean ± SEM
result type: Relative Population Doubling (RPD)

# molecule, data value
data = [
    ("COc1cc(CCN)c(OC)cc1I", "90.9% ± 0.7"),
    ("CNC(C)Cc1ccc2c(c1)OCO2 (centres unmarked) [MDMA, 3,4-methylenedioxy-methamphetamine, reference compound]", "96.0% ± 1.0"),
    ("COc1ccc(OC)c(CCN)c1", "97.5% ± 0.9"),
    ("COc1cc(CCNCc2ccccc2OC)c(OC)cc1Br [25B-NBOMe]", "86.4% ± 1.3"),
    ("COc1cc(CCN)c(OC)cc1Br", "95.9% ± 0.7"),
]
